target: smTas1R2:T40S/E142D+smTas1R3 (Saimiri sciureus, UniProt A3QP08, E142D/T40S); experiment: Ca2+ mobilization, mutated squirrel monkey receptor; assay type: cell-based, squirrel monkey (Saimiri sciureus); conditions: HEK293E cells with Gα16-gust44; dose-response, calcium mobilization
Sequence (A3QP08 20-834 T40S/E142D): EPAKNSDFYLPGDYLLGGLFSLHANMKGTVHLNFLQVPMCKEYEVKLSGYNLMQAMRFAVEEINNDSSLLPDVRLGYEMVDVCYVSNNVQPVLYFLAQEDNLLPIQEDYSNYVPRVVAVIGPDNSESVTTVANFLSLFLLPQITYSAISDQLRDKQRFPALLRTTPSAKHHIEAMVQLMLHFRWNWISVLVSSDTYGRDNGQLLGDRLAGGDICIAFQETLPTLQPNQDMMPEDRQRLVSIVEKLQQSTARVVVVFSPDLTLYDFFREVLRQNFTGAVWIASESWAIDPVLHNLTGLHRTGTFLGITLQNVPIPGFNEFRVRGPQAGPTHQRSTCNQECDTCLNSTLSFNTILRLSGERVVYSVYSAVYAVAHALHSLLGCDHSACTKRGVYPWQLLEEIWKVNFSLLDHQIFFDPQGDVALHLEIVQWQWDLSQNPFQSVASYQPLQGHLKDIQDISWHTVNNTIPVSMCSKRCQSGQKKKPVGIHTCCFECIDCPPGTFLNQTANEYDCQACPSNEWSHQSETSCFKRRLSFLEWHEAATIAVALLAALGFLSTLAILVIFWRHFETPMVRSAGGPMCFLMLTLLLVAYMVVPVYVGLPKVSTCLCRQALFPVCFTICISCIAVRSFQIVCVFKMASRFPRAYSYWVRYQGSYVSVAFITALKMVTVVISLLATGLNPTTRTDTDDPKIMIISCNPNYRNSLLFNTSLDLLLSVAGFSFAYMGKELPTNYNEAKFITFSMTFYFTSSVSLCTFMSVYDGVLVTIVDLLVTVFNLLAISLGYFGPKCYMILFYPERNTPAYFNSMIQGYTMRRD
Measured quantity: pEC50
Bear in mind: pEC50 is minus log10 of a mol/L concentration; give just that figure.

Lookup result for COC(=O)[C@H](Cc1ccccc1)NC(=O)[C@H](CC(=O)O)NCCC(C)(C)C ; measured pEC50: 2.68

----------
Target: hTas1R2:I67S/D142E+hTas1R3 (Homo sapiens, UniProt Q8TE23, D142E/I67S)
Sequence (Q8TE23 20-839 I67S/D142E): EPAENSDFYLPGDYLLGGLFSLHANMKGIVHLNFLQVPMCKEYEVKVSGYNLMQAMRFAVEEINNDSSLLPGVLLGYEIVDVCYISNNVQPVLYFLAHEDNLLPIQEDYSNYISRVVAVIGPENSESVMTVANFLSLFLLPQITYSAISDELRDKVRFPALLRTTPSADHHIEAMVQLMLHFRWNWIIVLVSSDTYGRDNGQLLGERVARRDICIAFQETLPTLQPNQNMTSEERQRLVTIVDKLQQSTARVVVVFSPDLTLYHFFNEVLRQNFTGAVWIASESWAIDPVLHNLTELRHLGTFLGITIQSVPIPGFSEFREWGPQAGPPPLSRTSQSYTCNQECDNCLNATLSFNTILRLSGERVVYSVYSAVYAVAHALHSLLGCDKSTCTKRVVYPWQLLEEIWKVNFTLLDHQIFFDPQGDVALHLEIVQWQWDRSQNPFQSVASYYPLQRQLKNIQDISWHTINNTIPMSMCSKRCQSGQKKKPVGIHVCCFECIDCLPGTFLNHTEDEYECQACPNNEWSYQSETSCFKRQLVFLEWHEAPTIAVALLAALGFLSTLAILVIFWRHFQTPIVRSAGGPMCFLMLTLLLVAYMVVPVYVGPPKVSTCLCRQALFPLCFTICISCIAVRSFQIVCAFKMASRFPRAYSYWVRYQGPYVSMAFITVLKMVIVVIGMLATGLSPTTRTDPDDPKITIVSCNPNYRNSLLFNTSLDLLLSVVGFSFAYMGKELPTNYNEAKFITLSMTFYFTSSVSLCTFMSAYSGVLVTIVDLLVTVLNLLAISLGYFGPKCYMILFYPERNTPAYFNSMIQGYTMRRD
Sequence (Q7RTX0 21-852 partner): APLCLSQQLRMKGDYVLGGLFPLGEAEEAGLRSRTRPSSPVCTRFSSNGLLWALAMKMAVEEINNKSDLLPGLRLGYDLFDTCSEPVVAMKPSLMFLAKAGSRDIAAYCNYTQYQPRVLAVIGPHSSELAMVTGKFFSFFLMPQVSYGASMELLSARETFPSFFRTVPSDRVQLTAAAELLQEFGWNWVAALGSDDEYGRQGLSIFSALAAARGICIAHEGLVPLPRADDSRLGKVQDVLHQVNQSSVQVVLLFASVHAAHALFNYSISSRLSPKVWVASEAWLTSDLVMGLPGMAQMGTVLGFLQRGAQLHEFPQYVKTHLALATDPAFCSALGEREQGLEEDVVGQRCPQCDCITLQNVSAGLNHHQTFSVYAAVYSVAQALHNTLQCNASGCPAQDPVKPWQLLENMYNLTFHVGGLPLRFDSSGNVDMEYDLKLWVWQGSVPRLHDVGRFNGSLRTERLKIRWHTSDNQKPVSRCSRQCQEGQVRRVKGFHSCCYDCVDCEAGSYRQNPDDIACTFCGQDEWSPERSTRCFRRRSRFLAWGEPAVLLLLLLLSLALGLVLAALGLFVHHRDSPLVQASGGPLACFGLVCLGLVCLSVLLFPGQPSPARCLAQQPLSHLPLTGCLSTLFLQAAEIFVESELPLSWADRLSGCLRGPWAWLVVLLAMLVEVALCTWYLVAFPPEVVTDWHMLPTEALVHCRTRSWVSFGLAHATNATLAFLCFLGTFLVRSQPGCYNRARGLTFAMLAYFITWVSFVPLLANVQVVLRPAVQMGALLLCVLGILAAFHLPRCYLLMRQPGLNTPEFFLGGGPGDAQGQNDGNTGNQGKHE
Assay: Ca2+ mobilization, mutated human receptor
Conditions: HEK293E cells with Gα16-gust44; dose-response, calcium mobilization
Measured quantity: EC50 (mM)
Enter your answer as a number in mM; do not include the unit.

Lookup result for COC(=O)[C@H](Cc1ccccc1)NC(=O)[C@H](CC(=O)O)NCCC(C)(C)C ; measured EC50: 4.7

----------
target: hTas1R2:S40T/D142E+hTas1R3 (Homo sapiens, UniProt Q8TE23, D142E/S40T); experiment: Ca2+ mobilization, mutated human receptor; conditions: HEK293E cells with Gα16-gust44; dose-response, calcium mobilization
Measured quantity: EC50 (mM)
Enter your answer as a number in mM; do not include the unit.

Lookup result for COC(=O)[C@H](Cc1ccccc1)NC(=O)[C@H](CC(=O)O)NCCC(C)(C)C ; measured EC50: 1.4

----------
target: smTas1R2:T40S/S67I/E142D+smTas1R3 (Saimiri sciureus, UniProt A3QP08, E142D/S67I/T40S); assay: Ca2+ mobilization, mutated squirrel monkey receptor; type: cell-based, squirrel monkey (Saimiri sciureus)
Sequence (A3QP08 20-834 T40S/S67I/E142D): as the sequence (A3QP08 20-834 T40S/E142D) above, with S48I counted along it
Peptide text beside a SMILES is read from it.
Measured quantity: EC50 (µM)
Enter your answer as a number in µM; do not include the unit.

Lookup result for COC(=O)[C@H](Cc1ccccc1)NC(=O)[C@@H](N)CC(=O)O [aspartame] (H-Asp-Phe-OMe) ; measured EC50: 1200

----------
target: smTas1R2:T40S/S67I/E142D+smTas1R3 (Saimiri sciureus, UniProt A3QP08, E142D/S67I/T40S); test: Ca2+ mobilization, mutated squirrel monkey receptor; assay type: cell-based, squirrel monkey (Saimiri sciureus); settings: HEK293E cells with Gα16-gust44; dose-response, calcium mobilization
Measured quantity: pEC50
Bear in mind: pEC50 is minus log10 of a mol/L concentration; give just that figure.

Lookup result for COC(=O)[C@H](Cc1ccccc1)NC(=O)[C@H](CC(=O)O)NCCC(C)(C)C ; measured pEC50: 3.55

----------
Biological target: hTas1R2/smTas1R3 (Homo sapiens)
Sequence (Q8TE23 20-839): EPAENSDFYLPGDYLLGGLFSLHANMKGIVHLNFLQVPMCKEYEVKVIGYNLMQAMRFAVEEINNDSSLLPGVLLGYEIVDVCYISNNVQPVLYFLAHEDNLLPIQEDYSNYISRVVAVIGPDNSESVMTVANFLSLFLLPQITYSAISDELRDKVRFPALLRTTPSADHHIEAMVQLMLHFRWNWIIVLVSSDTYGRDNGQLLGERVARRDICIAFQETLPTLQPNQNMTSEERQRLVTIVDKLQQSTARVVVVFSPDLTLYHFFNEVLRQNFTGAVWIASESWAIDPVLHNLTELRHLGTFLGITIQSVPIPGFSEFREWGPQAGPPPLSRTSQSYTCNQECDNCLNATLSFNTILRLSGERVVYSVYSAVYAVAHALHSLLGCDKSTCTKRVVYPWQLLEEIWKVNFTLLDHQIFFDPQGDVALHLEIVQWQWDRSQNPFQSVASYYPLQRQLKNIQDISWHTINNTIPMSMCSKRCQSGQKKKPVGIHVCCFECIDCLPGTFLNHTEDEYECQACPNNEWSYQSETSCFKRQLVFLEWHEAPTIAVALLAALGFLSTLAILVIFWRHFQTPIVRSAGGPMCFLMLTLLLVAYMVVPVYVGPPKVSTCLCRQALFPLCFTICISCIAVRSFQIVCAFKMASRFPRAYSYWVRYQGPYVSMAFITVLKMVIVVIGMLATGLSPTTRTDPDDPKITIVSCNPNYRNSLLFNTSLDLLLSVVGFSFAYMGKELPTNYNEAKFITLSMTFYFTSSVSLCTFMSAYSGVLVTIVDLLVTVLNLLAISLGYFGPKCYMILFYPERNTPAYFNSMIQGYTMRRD
Assay: Ca2+ mobilization, mismatched receptor
Format: cell-based, human/squirrel monkey
Conditions: aspartame 10mM, neotame 1mM, sucralose 2 mM, D-tryptophan 5mM, sucrose 150mM; vs control / wild type human receptor
Measured quantity: calcium response to sweetener

Lookup result for OC[C@H]1O[C@@](CO)(O[C@H]2O[C@H](CO)[C@@H](O)[C@H](O)[C@H]2O)[C@@H](O)[C@@H]1O [sucrose] ; measured calcium response to sweetener: reduced responses

Lookup result for N[C@H](Cc1c[nH]c2ccccc12)C(=O)O [D-tryptophan] ; measured calcium response to sweetener: reduced responses

Lookup result for OC[C@H]1O[C@H](O[C@]2(CCl)O[C@H](CCl)[C@@H](O)[C@@H]2O)[C@H](O)[C@@H](O)[C@H]1Cl [sucralose] ; measured calcium response to sweetener: reduced responses

----------
molecular target: smTas1R2:T40S/E142D+smTas1R3 (Saimiri sciureus, UniProt A3QP08, E142D/T40S); assay: Ca2+ mobilization, mutated squirrel monkey receptor; type: cell-based, squirrel monkey (Saimiri sciureus)
Peptide text beside a SMILES is read from it.
Measured quantity: EC50 (mM)
Enter your answer as a number in mM; do not include the unit.

Lookup result for COC(=O)[C@H](Cc1ccccc1)NC(=O)[C@@H](N)CC(=O)O [aspartame] (H-Asp-Phe-OMe) ; measured EC50: 1.4

These entries and their values trace back to paper PMC3149845.
